System: Staphylococcus aureus
Assay: Minimum inhibitory concentration against Staphylococcus aureus
Format: functional
observed property: MIC (µg/mL)
Express it in µg/mL; write the number only.

Below: 2 compounds and their reported MIC.
> print(dat)
                                   compound  observed.property  quantitative.result
1  CCCC/C(C)=C/C=C(\C)C(=O)c1c(O)cc(CCC/C=C/NC(=O)OC)oc1=O                MIC                    4
2  CCCC/C(C)=C/C=C(\C)C(=O)c1c(O)cc(C(C)CC/C=C\NC(=O)OC)oc1=O (configuration not stated)                MIC                    4

Please turn your attention to the following entry.
Consider the compound CCCC/C(C)=C/C=C(\C)C(=O)c1c(O)cc(C(C)CC/C=C/NC(=O)OC)oc1=O (configuration not stated) and give its measured MIC.
1

* * *

Biological target: DNA-directed RNA polymerase subunit beta (Escherichia coli K-12, UniProt P0A8V2)
Sequence (P0A8V2 whole entry): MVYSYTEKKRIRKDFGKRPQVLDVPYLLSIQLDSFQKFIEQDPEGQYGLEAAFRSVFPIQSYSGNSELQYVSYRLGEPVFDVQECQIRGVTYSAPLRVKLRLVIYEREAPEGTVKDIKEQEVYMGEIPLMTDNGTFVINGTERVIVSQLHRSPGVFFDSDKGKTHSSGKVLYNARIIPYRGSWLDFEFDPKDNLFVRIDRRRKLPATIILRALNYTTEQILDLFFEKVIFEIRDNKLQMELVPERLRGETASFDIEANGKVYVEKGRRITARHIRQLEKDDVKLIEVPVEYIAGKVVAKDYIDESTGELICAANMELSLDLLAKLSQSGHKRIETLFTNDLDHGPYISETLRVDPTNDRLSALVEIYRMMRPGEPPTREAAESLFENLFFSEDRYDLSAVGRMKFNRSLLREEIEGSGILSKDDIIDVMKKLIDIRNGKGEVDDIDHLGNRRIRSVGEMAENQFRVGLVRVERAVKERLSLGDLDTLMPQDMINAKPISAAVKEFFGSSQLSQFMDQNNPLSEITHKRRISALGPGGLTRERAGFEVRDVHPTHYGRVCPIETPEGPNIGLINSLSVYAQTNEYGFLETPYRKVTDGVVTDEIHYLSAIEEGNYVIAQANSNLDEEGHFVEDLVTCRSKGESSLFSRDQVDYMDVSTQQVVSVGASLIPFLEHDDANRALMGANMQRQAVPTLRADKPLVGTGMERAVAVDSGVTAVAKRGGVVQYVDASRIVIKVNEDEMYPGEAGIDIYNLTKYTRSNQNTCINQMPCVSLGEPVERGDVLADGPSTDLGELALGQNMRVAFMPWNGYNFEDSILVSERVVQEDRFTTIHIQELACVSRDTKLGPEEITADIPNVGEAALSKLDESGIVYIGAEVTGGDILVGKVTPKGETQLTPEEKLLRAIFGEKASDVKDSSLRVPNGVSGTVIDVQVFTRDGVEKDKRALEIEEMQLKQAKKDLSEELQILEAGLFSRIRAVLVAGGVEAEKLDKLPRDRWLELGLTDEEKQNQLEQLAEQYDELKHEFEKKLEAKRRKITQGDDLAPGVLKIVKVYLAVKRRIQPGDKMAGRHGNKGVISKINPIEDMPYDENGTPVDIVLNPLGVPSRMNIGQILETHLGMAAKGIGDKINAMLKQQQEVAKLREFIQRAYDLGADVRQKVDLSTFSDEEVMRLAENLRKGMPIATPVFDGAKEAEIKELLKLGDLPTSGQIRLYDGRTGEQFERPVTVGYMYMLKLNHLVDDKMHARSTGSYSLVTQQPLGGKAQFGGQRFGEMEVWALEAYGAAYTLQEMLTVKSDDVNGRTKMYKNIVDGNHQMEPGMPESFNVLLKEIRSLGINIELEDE
Test: In vitro inhibitory activity against RNA polymerase of Escherichia coli
Listing of recorded pIC50 by entry.
Kindly note that pIC50 refers to -log10 of the concentration in mol/L and answer with the value alone.

Example molecules with recorded pIC50:
> print(dat)
                                   molecule  quantitative.result
1  CCCC/C(C)=C/C=C(\C)C(=O)c1c(OC)cc(C(C)CC/C=C/NC(=O)OC)oc1=O (configuration not stated)                 5.38
2  CCCC/C(C)=C/C=C(\C)C(=O)c1c(O)cc(C(C)CC/C=C\NC(=O)OC)oc1=O (configuration not stated)                 5.90
3  CCCC/C=C/C=C(\C)C(=O)c1c(O)cc(C(C)CC/C=C/NC(=O)OC)oc1=O (configuration not stated)                 5.98
4  CCCC/C(C)=C\C=C(\C)C(=O)c1c(O)cc(C(C)CC/C=C/NC(=O)OC)oc1=O (configuration not stated)                 5.60
5  CCCC/C(C)=C/C=C(\C)C(=O)c1c(O)cc(CCC/C=C/NC(=O)OC)oc1=O                 6.47
6  CCCC/C(C)=C/C=C(\C)C(=O)c1c(O)cc(C(C)CCCCNC(=O)OC)oc1=O (configuration not stated)                 5.40

Pending molecule:
Which pIC50 is listed for CCCC/C(C)=C/C=C(\C)C(=O)c1c(O)cc(C(C)CC/C=C/NC(=O)OC)oc1=O (configuration not stated) ?
6.04

* * *

Tested on: Staphylococcus aureus
Experiment: Minimum inhibitory concentration against Staphylococcus aureus
Assay type: functional
observed property: MIC (µg/mL)
Write the value in µg/mL as a bare number.

Here's what some known entries look like.
> print(dat)
                                   compound                 target  unit.info  quantitative.result
1  CCCC/C(C)=C\C=C(\C)C(=O)c1c(O)cc(C(C)CC/C=C/NC(=O)OC)oc1=O (centres undefined)  Staphylococcus aureus      µg/mL                   16
2  CCCC/C=C/C=C(\C)C(=O)c1c(O)cc(C(C)CC/C=C/NC(=O)OC)oc1=O (centres undefined)  Staphylococcus aureus      µg/mL                   16
3  CCCC/C(C)=C/C=C(\C)C(=O)c1c(O)cc(C(C)CCCCNC(=O)OC)oc1=O (centres undefined)  Staphylococcus aureus      µg/mL                   64

Now consider a different compound.
Record lookup: for Staphylococcus aureus, what MIC belongs to CCCC/C(C)=C/C=C/C(=O)c1c(O)cc(C(C)CC/C=C/NC(=O)OC)oc1=O (centres undefined) ?
64
